Values compiled from patent US20240247080A1.

- Target Or System: human GLP-1 receptor (human, UniProt P43220 24-463)
- Procedure Summary: cell-based or functional assay
Starred links: 1 amine or outer side, 2 acyl side, 3 side chain; linkers in the order of their positions; H or OH if unused. Non-standard residues stand in square brackets, D forms with d. Groups on a side chain read outwards from the residue. No end group written: not given here. *: point of attachment. C20 diacid = O=C(O)CCCCCCCCCCCCCCCCCCC(=O)*; C18 diacid = O=C(O)CCCCCCCCCCCCCCCCC(=O)*; γGlu = O=C(O)[C@H](CCC(=O)[*:2])N[*:1]; AEEA = NCCOCCOCC(=O)O; Aib = CC(C)(N)C(=O)O; Ahx = NCCCCCC(=O)O
Some binders, each annotated with its measured EC50 hGLP1R 0.5% hP (CreLuc).
Property Label: EC50 hGLP1R 0.5% hP (CreLuc)

| Binder | Property Label | Reported Result |
| --- | --- | --- |
| Y[Aib]EGTFTSDYSI[Aib]LEKQAQ[Aib]AFVEWLIK([Glu-Glu-Glu-Glu-C18 diacid])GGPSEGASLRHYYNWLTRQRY-NH2 (also: TFA salt) [Compound 291] | EC50 hGLP1R 0.5% hP (CreLuc) | 0.1 nM |
| YXEGTFTSDYSIXLEKQAQXAFVEWLIKGGPSSGASLRHYYNWLTRQRY (Aib at 2, 13, 20; K28 side chain acylated with C18DA-gGlu-gGlu-gGlu-gGlu-gGlu-gGlu-eLys; C-terminal amide (NH2)) [Compound 259] | EC50 hGLP1R 0.5% hP (CreLuc) | 0.09 nM |
| Y[Aib]EGTFTSDYSI[Aib]LEKQAQ[Aib]EFVEWLIK([Ahx-γGlu-γGlu-γGlu-γGlu-γGlu-γGlu-C18 diacid])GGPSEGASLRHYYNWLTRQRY-NH2 (also: TFA salt) [Compound 279] | EC50 hGLP1R 0.5% hP (CreLuc) | 0.72 nM |
| YXEGTFTSDYSIXLEKQAQXAFVQWLIKGGPSEGASLRHYYNWLTRQRY (Aib at 2, 13, 20; K28 side chain acylated with C18DA-gGlu-gGlu-gGlu-gGlu-gGlu-gGlu-eLys; C-terminal amide (NH2)) [Compound 265] | EC50 hGLP1R 0.5% hP (CreLuc) | 0.1 nM |
| Y[Aib]EGTFTSDYSI[Aib]LEKQAQ[Aib]AFVQWLIK([AEEA-AEEA-γGlu-γGlu-γGlu-γGlu-C20 diacid])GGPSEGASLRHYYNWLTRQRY-NH2 (also: TFA salt) [Compound 269] | EC50 hGLP1R 0.5% hP (CreLuc) | 0.14 nM |
| YXEGTFTSDYSIXLEKQAQXAFVEWLIKGGPSEGASLRHYYNWLTRQRY (Aib at 2, 13, 20; K28 side chain acylated with C20DA-gGlu-gGlu-gGlu-gGlu-gGlu; C-terminal amide (NH2)) [Compound 289] | EC50 hGLP1R 0.5% hP (CreLuc) | 0.14 nM |
| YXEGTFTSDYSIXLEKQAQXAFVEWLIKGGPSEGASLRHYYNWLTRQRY (Aib at 2, 13, 20; K28 side chain acylated with C18DA-gGlu-Glu-gGlu-gGlu-gGlu-gGlu-eLys (so in the source); C-terminal amide (NH2)) [Compound 293] | EC50 hGLP1R 0.5% hP (CreLuc) | 0.18 nM |
| Y[Aib]EGTFTSDYSI[Aib]LEKQAQ[Aib]AFVEWLIKGGPSEGASLRHYYNWLTRQRY-NH2 (not fully specified (residue 28); also: TFA salt) [Compound 296] | EC50 hGLP1R 0.5% hP (CreLuc) | 0.11 nM |
| YXEGTFTSDYSIXLEKQAQXEFVEWLIKGGPSEGASLRHYYNWLTRQRY (Aib at 2, 13, 20; K28 side chain acylated with C20DA-gGlu-gGlu-gGlu-gGlu-gGlu-gGlu-eLys; C-terminal amide (NH2)) [Compound 275] | EC50 hGLP1R 0.5% hP (CreLuc) | 0.5 nM |
| Y[Aib]EGTFTSDYSI[Aib]LEKQAQ[Aib]AFVEWLIK([Ahx-γGlu-γGlu-γGlu-γGlu-γGlu-γGlu-C18 diacid])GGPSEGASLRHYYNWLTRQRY-NH2 (also: TFA salt) [Compound 303] | EC50 hGLP1R 0.5% hP (CreLuc) | 0.2 nM |
